Biological target: T1, ECF33_375
T1 chain: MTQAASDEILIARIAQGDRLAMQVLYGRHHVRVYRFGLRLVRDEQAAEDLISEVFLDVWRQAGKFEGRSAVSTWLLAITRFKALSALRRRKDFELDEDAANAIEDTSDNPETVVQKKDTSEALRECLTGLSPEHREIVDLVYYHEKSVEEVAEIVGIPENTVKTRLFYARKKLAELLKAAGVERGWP
reported.metric: fold repression

binder: AS27_1331 (protein) MSAADKDPDKHSADADPPLTVELLADLQAGLLDDATAARIRSRVRSDPQAQQILRALNRVRRDVAAMGADPAWGPAARPAVVDSISAALRSARPNSSPGAAHAARPHVHPVRMIAGAAGLCAVATAIGVGAVVDAPPPAPSAPTTAQHITVSKPAPVIPLSRPQVLDLLHHTPDYGPPGGPLGDPSRRTSCLSGLGYPASTPVLGAQPIDIDARPAVLLVIPADTPDKLAVFAVAPHCSAADTGLLASTVVPRA
reported.metric: fold repression
measured: 4.75
--
binder: AS31_34 (protein) MNKEKLSDHLKSEWKKIDQTANPSIPNQKELLHQLSQMKAEYRKKLLQEIILFVFCALMVVSAAILAFTQAPAVFIVLQVCVLAVLPILIAAEKKRHLGECEVKRG
reported.metric: fold repression
measured: 2.06
--
binder: AS25_1645 (protein) MNESFSQRQTDGDRRRGGDLEMKKNHTSHQHHTDSETPMGHNFEQFQRLSAYFDGEATPAERKEIQHLLDTDPQVKQQYQQLRQLKQALQLLPIPTSISAQYLGQRVLARLRRSQLRTLSLWGSGAIAALFVAGVMGQMPRLNFDRFAKNDPDQQPTAALVETSPQGEEALVVALNRPVLQIPKLATTESP
reported.metric: fold repression
measured: 3.29
